Molecular target: Histone deacetylase (Homo sapiens) (UniProt Q13547+O15379+Q9UBN7+Q92769+Q9UQL6+Q8WUI4+Q9BY41+Q96DB2+P56524+Q9UKV0+Q969S8)
Experiment: Inhibition of Class 1 histone deacetylase in human HeLa cells assessed as induction in p21 protein expression at 3 uM incubated for 16 hrs by luciferase reporter gene assay relative to HDAC inhibitor entinostat
Assay type: cell-based
Parameters: scale not given: the % may be the effect or the level left
result_type: Activity (%)
Answers are plain numbers, in %.

Field: example entries. Status: answers known.
{"compound": "CN1C[C@H](C(=O)N2CCCCC2)[C@@H](c2ccc(/C=C/C(=O)Nc3ccccc3N)cc2)C1 (racemic)", "result_type": "Activity", "data_value": 10}
{"compound": "CN1C[C@H](C(=O)Nc2cccc(Cl)c2)[C@@H](c2ccc(/C=C/C(=O)Nc3ccccc3N)cc2)C1 (racemic)", "result_type": "Activity", "data_value": 230}
{"compound": "CC(C)(O)CN1C[C@H](C(=O)Nc2ccc(Cl)cc2)[C@@H](c2ccc(/C=C/C(=O)Nc3ccccc3N)cc2)C1 (racemic)", "result_type": "Activity", "data_value": 230}

For each entry beneath this line, provide reported Activity.
1. Nc1ccccc1NC(=O)/C=C/c1ccc([C@H]2CN(CC(F)F)C[C@@H]2C(=O)Nc2ccc(Cl)cc2)cc1 (racemic)
2. CN(C)[C@H]1CCN(C(C(=O)Nc2ccc(C(F)(F)F)cc2)c2ccc(/C=C/C(=O)Nc3ccccc3N)cc2)C1 (some centres not stated)
3. CN1C[C@H](C(=O)Nc2ccc(F)cc2)[C@@H](c2ccc(/C=C/C(=O)Nc3ccccc3N)cc2)C1 (racemic)
4. CN1C[C@H](C(=O)Nc2ccc(Cl)cc2)[C@@H](c2ccc(/C=C/C(=O)Nc3ccccc3N)cn2)C1 (racemic)

Result:
90
216
250
100

Data credit: ChEMBL document CHEMBL2177000
